Tmax listing for selected compounds.
# experimental_details: Tmax in Wistar Han rat at 100 mg/kg, po by LC/MS method
# Assay type: ADME, organism-based
# condition_context: in vivo

| compound | Tmax, h |
| --- | --- |
| COC(=O)N[C@H](C(=O)N1CCC[C@H]1c1ncc(-c2cc(F)c3c(c2)O[C@@H](c2ccc(C4CC4)s2)n2c-3cc3cc(-c4cnc([C@@H]5CCCN5C(=O)[C@@H](NC(=O)OC)C5CCOCC5)[nH]4)ccc32)[nH]1)C(C)C | 4 |
| COC(=O)N[C@H](C(=O)N1CCC[C@H]1c1ncc(-c2cc(F)c3c(c2)O[C@@H](c2ccc(C4CC4)s2)n2c-3cc3cc(-c4cnc([C@@H]5CCCN5C(=O)[C@@H](NC(=O)OC)[C@@H]5CCOC(C)(C)C5)[nH]4)ccc32)[nH]1)C(C)C | 2 |
| COC(=O)N[C@H](C(=O)N1CCC[C@H]1c1ncc(-c2cc(F)c3c(c2)O[C@@H](c2ccc(C4CC4)s2)n2c-3cc3cc(-c4cnc([C@@H]5CCCN5C(=O)[C@@H](NC(=O)OC)C5C[C@@H](C)O[C@H](C)C5)[nH]4)ccc32)[nH]1)C(C)C (some centres undefined) | 3 |
| COC(=O)N[C@H](C(=O)N1CCC[C@H]1c1ncc(-c2cc(F)c3c(c2)O[C@@H](c2ccc(C4CC4)s2)n2c-3cc3cc(-c4cnc([C@@H]5CCCN5C(=O)[C@@H](NC(=O)OC)C5C[C@@H](C)O[C@@H](C)C5)[nH]4)ccc32)[nH]1)C(C)C (some centres undefined) | 2 |

---

# experimental_details: Cmax in Wistar Han rat at 10 mg/kg, po by LC/MS method
# Type: ADME, organism-based
# Parameters: dose 10 mg/kg, route oral
# condition_context: in vivo
If the reported Cmax equals or exceeds 40 nM, assign criterion met. If not, assign criterion not met.

| compound | group |
| --- | --- |
| COC(=O)N[C@H](C(=O)N1CCC[C@H]1c1ncc(-c2cc(F)c3c(c2)O[C@@H](c2ccc(C4CC4)s2)n2c-3cc3cc(-c4cnc([C@@H]5CCCN5C(=O)[C@@H](NC(=O)OC)C5CCOC6(CC6)C5)[nH]4)ccc32)[nH]1)C(C)C (stereo partly drawn) | criterion met |
| CCCc1ncc([C@@H]2Oc3cc(-c4cnc([C@@H]5CCCN5C(=O)[C@@H](NC(=O)OC)C(C)C)[nH]4)cc(F)c3-c3cc4cc(-c5cnc([C@@H]6CCCN6C(=O)[C@@H](NC(=O)OC)[C@@H]6CCOC(C)(C)C6)[nH]5)ccc4n32)s1 | criterion not met |
| COC(=O)N[C@H](C(=O)N1CCC[C@H]1c1ncc(-c2cc(F)c3c(c2)O[C@@H](c2ccc(C(C)C)s2)n2c-3cc3cc(-c4cnc([C@@H]5CCCN5C(=O)[C@@H](NC(=O)OC)[C@@H]5CCOC(C)(C)C5)[nH]4)ccc32)[nH]1)C(C)C | criterion met |
| COC(=O)N[C@H](C(=O)N1CCC[C@H]1c1ncc(-c2cc(F)c3c(c2)O[C@@H](c2cnc(C4CC4)s2)n2c-3cc3cc(-c4cnc([C@@H]5CCCN5C(=O)[C@@H](NC(=O)OC)[C@@H]5CCOC(C)(C)C5)[nH]4)ccc32)[nH]1)C(C)C | criterion met |
| COC(=O)N[C@H](C(=O)N1CCC[C@H]1c1ncc(-c2ccc3c(c2)cc2n3[C@H](c3ccc4c(c3)OCCN4C)Oc3cc(-c4cnc([C@@H]5CCCN5C(=O)[C@@H](NC(=O)OC)C5CCOCC5)[nH]4)cc(F)c3-2)[nH]1)C(C)C | criterion not met |
| COC(=O)N[C@H](C(=O)N1CCC[C@H]1c1ncc(-c2cc(F)c3c(c2)O[C@@H](c2ccc(C4CC4)s2)n2c-3cc3cc(-c4cnc([C@@H]5CCCN5C(=O)[C@@H](NC(=O)OC)[C@H]5CCOC(C)(C)C5)[nH]4)ccc32)[nH]1)C(C)C | criterion not met |

---

EC90: recorded values
# experimental_system: Nonstructural protein 5A (Hepatitis C virus) (UniProt Q5L478)
# experimental_details: Inhibition of NS5A L31M mutant in HCV genotype 2b infected in HuH7 replicon cells assessed as decrease in viral replication after 3 days by RT-PCR method
# Type: cell-based
# condition_context: Hepatitis C virus subtype 2b
recorded_metric: EC90 (nM)

| smiles_representation | measured_number |
| --- | --- |
| COC(=O)N[C@H](C(=O)N1CCC[C@H]1c1ncc(-c2cc(F)c3c(c2)O[C@@H](c2ccc(C(F)(F)F)s2)n2c-3cc3cc(-c4cnc([C@@H]5CCCN5C(=O)[C@@H](NC(=O)OC)C5CCOCC5)[nH]4)ccc32)[nH]1)C(C)C | 0.01 |
| COC(=O)N[C@H](C(=O)N1CCC[C@H]1c1ncc(-c2cc(F)c3c(c2)O[C@@H](c2ccc(C(F)F)s2)n2c-3cc3cc(-c4cnc([C@@H]5CCCN5C(=O)[C@@H](NC(=O)OC)C5CCOCC5)[nH]4)ccc32)[nH]1)C(C)C | 0.016 |
| COC(=O)N[C@H](C(=O)N1CCC[C@H]1c1ncc(-c2cc(F)c3c(c2)O[C@@H](c2cnc(C4CC4)s2)n2c-3cc3cc(-c4cnc([C@@H]5CCCN5C(=O)[C@@H](NC(=O)OC)[C@@H]5CCOC(C)(C)C5)[nH]4)ccc32)[nH]1)C(C)C | 0.015 |
| COC(=O)N[C@H](C(=O)N1CCC[C@H]1c1ncc(-c2cc(F)c3c(c2)O[C@@H](c2cnc(C(C)C)s2)n2c-3cc3cc(-c4cnc([C@@H]5CCCN5C(=O)[C@@H](NC(=O)OC)[C@@H]5CCOC(C)(C)C5)[nH]4)ccc32)[nH]1)C(C)C | 0.019 |
| CCCc1ccc([C@@H]2Oc3cc(-c4cnc([C@@H]5CCCN5C(=O)[C@@H](NC(=O)OC)C(C)C)[nH]4)cc(F)c3-c3cc4cc(-c5cnc([C@@H]6CCCN6C(=O)[C@@H](NC(=O)OC)[C@@H]6CCOC(C)(C)C6)[nH]5)ccc4n32)s1 | 0.084 |

---

# experimental_details: Drug level in Wistar Han rat at 10 mg/kg, po measured at 24 hrs by LC/MS method
# Format: ADME, organism-based
# condition_context: in vivo, read-out: Drug uptake
Reported concentration at 24 h values are given for each entry in this list.

| smiles_representation | concentration at 24 h (nM) |
| --- | --- |
| COC(=O)N[C@H](C(=O)N1CCC[C@H]1c1ncc(-c2cc(F)c3c(c2)O[C@@H](c2ccc(C4CC4)s2)n2c-3cc3cc(-c4cnc([C@@H]5CCCN5C(=O)[C@@H](NC(=O)OC)C5CC(C)(C)OC(C)(C)C5)[nH]4)ccc32)[nH]1)C(C)C | 5 |
| CCc1ncc([C@@H]2Oc3cc(-c4cnc([C@@H]5CCCN5C(=O)[C@@H](NC(=O)OC)C(C)C)[nH]4)cc(F)c3-c3cc4cc(-c5cnc([C@@H]6CCCN6C(=O)[C@@H](NC(=O)OC)[C@@H]6CCOC(C)(C)C6)[nH]5)ccc4n32)s1 | 1 |
| CCc1ccc([C@@H]2Oc3cc(-c4cnc([C@@H]5CCCN5C(=O)[C@@H](NC(=O)OC)[C@@H]5CCOC(C)(C)C5)[nH]4)cc(F)c3-c3cc4cc(-c5cnc([C@@H]6CCCN6C(=O)[C@@H](NC(=O)OC)C(C)C)[nH]5)ccc4n32)s1 | 2 |

---

Measured EC90 accompanies every entry in the list below.
# experimental_system: Nonstructural protein 5A (Hepatitis C virus) (UniProt Q5L478)
# Sequence (whole entry): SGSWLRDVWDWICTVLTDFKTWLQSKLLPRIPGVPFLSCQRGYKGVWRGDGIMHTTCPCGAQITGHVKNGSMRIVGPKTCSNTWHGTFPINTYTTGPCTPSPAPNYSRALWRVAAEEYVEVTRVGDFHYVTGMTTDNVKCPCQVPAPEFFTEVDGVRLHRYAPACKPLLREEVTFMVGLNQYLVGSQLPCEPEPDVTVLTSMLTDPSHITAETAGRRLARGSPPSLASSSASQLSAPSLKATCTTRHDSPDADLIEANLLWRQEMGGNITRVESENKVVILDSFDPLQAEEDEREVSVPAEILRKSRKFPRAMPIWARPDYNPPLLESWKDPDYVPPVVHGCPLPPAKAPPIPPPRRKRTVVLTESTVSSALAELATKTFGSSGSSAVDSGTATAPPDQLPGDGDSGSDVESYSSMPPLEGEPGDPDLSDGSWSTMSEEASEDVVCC
# experimental_details: Inhibition of NS5A L31M mutant in HCV genotype 2b infected in HuH7 replicon cells assessed as decrease in viral replication after 3 days by RT-PCR method
# Assay type: cell-based
# condition_context: Hepatitis C virus subtype 2b
recorded_metric: EC90 (nM)

| molecule | measured_number |
| --- | --- |
| COC(=O)N[C@H](C(=O)N1CCC[C@H]1c1ncc(-c2cc(F)c3c(c2)O[C@@H](c2ccc(C4CC4)s2)n2c-3cc3cc(-c4cnc([C@@H]5CCCN5C(=O)[C@@H](NC(=O)OC)C5C[C@@H](C)O[C@@H](C)C5)[nH]4)ccc32)[nH]1)C(C)C (some centres undefined) | 0.025 |
| COC(=O)N[C@H](C(=O)N1CCC[C@H]1c1ncc(-c2cc(F)c3c(c2)O[C@@H](c2ccc(C4CC4)s2)n2c-3cc3cc(-c4cnc([C@@H]5CCCN5C(=O)[C@@H](NC(=O)OC)C5CC(C)(C)OC(C)(C)C5)[nH]4)ccc32)[nH]1)C(C)C | 0.073 |
| COC(=O)N[C@H](C(=O)N1CCC[C@H]1c1ncc(-c2ccc3c(c2)cc2n3[C@H](c3ccc(C4CC4)s3)Oc3cc(-c4cnc([C@@H]5CCCN5C(=O)[C@@H](NC(=O)OC)[C@@H]5CCOC(C)(C)C5)[nH]4)cc(F)c3-2)[nH]1)C(C)C | 0.031 |
| CCc1ccc([C@@H]2Oc3cc(-c4cnc([C@@H]5CCCN5C(=O)[C@@H](NC(=O)OC)[C@@H]5CCOC(C)(C)C5)[nH]4)cc(F)c3-c3cc4cc(-c5cnc([C@@H]6CCCN6C(=O)[C@@H](NC(=O)OC)C(C)C)[nH]5)ccc4n32)s1 | 0.349 |
